Biological target: T1, Recombinant human leptin binding domain (hLBD) (human, UniProt P48357 428-635, biotinylated with Sulfo-NHS-LC-Biotin in the yeast display assays; not labelled when immobilized in the plate binding assay)
T1 construct: CRH2 sub-domain of the leptin receptor; Prepared in the applicants' laboratory; also called soluble human leptin receptor; CHR2
T1 sequence (looked up): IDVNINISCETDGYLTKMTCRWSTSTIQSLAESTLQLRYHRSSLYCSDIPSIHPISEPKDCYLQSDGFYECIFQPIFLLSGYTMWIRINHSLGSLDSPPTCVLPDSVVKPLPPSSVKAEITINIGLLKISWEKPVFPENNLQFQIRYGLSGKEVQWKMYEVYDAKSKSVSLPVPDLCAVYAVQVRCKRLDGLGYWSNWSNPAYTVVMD
Test: competitive plate binding assay: immobilized hLBD, biotinylated mouse leptin as ligand, mutein as competitor
property_label: fold increase in affinity as compared to the WT mouse leptin (fold)
Provide the reading as a plain figure in fold.

Report measured fold increase in affinity as compared to the WT mouse leptin; entry is recombinant mouse leptin mutein H12 (S97Y), agonist (ligand, mature) AVPIQKVQDDTKTLIKTIVTRINDISHTQSVSAKQRVTGLDFIPGLHPILSLSKMDQTLAVYQQVLTSLPSQNVLQIANDLENLRDLLHLLAFSKSCYLPQTSGLQKPESLDGVLEASLYSTEVVALSRLQGSLQDILQQLDVSPEC 1.5

Numbers sourced from patent US20130133089A1.
